Source listed as patent US5300672A.

tested on: Piricularia oryzae; assay: whole plant or invertebrate; format: in vivo; conditions: Pyricularia oryzae, read-out: % Control RB, application rate 100 ppm
Collected pest or weed control at 100 ppm values appear next to each entry.
Answer with a number only, understood to be in %.

molecule	pest or weed control at 100 ppm / %
CCCCCCCCNC(=O)/C=C\SC(=O)CCCCCCC [Compound 23, N-octyl-cis-3-(octanoylthio)acrylamide]	0
CCCCCCCCNC(=O)/C=C\SCC(=O)OCC	0
CCCCCCCCNC(=O)/C=C\SC(=O)C(C)(C)C	0
CCCCCCCCNC(=O)/C=C\SC(=O)c1ccccc1CCl	80
CCCCCCCCNC(=O)/C=C\SC(=O)c1ccc([N+](=O)[O-])o1	80

Measured pest or weed control at 100 ppm of CCCCCCCCNC(=O)/C=C\SC(=O)c1ccccc1 [Compound 1, N-octyl-cis-3-(benzoylthio)acrylamide] : 0

Entry "CCCCCCCCNC(=O)/C=C\SC(=O)N1CCCC1" ; pest or weed control at 100 ppm = 0

Entry "CCCCCCCCNC(=O)/C=C\SC(=O)CCCl" , pest or weed control at 100 ppm reported as 0

Item: "CCCCCCCCNC(=O)/C=C\SC(=O)c1c(F)cc(F)cc1F" | pest or weed control at 100 ppm: 90

So, "CCCCCCCCNC(=O)/C=C\SC(=O)c1ccc(F)cc1" ? Its pest or weed control at 100 ppm was 80

* * *

test system: Piricularia oryzae; test: whole plant or invertebrate; assay type: in vivo; conditions: Pyricularia oryzae, read-out: % Control RB, application rate 200 ppm
endpointLabel: pest or weed control at 200 ppm (%)
Express it in %; write the number only.

// solved cases for pest or weed control at 200 ppm follow
molecule	pest or weed control at 200 ppm [%]
CCCCCCCCNC(=O)/C=C\SC(=O)c1c[nH]c2ccccc12 [Compound 77]	90
CC(=O)S/C=C\C(=O)NC1CCCCCCCCCCC1 [Compound 90]	0
CCCCCCCCNC(=O)/C=C\SC(=O)CCOc1ccccc1 [Compound 79]	0
CCCCCCCCNC(=O)/C=C\SC(=O)c1ccoc1 [Compound 62, N-octyl-cis-3-(3-furoylthio)acrylamide]	0

According to the records, this molecule CCCCCCCCNC(=O)/C=C\SC(=O)c1cccn1C [Compound 61] displays pest or weed control at 200 ppm of 0

* * *

system: Phytophthora infestans; assay: whole plant or invertebrate; assay type: in vivo; conditions: Phytophthora infestans, in Solanum lycopersicum, 96 h, read-out: % Control TLB, application rate 200 ppm
endpointLabel: pest or weed control at 200 ppm (%)
Output spec: scalar in %, unitless text.

Below, 3 compounds whose answers are already recorded.
compound	pest or weed control at 200 ppm (%)
CCCCCCCCNC(=O)/C=C\SC(=O)C1C=CCC=C1C (centres unmarked)	0
CCCCCCCCNC(=O)/C=C\SC(=O)CCc1ccccc1	100
CCCCCCCCNC(=O)/C=C\SC(=O)/C=C/c1ccc([N+](=O)[O-])cc1	0

The reported value for "CCCCCCCCNC(=O)/C=C\SC(=O)N(c1ccccc1)c1ccccc1" in terms of pest or weed control at 200 ppm is 0

Given item "CCCCCCCCNC(=O)/C=C\SC(=O)CCCc1ccccc1" , the value recorded as its pest or weed control at 200 ppm is 100

* * *

tested on: Phytophthora infestans; assay: whole plant or invertebrate; assay type: in vivo; conditions: Phytophthora infestans, in Solanum lycopersicum, 96 h, read-out: % Control TLB, application rate 200 ppm
endpointLabel: pest or weed control at 200 ppm (%)
Give the value, in units of %, as a plain number.

moleculeSmiles	readoutNumber
CCCCCCCCNC(=O)/C=C\SC(=O)/C=C/C=C/c1ccccc1	0
C#CCNC(=O)/C=C\SC(=O)c1ccccc1	0
CCCCCCCCNC(=O)/C=C\SC(=O)c1ccsc1	95

Sure, the documented pest or weed control at 200 ppm for "CCCCCCCCNC(=O)/C=C\SC(=O)c1ccc([N+](=O)[O-])c(OC)c1" is 0

pest or weed control at 200 ppm reported for this molecule "CCCCCCCCNC(=O)/C=C\SC(=O)c1cccc(Cl)c1Cl" : 0

* * *

tested on: Pellicularia filamentosa (f. sp. sasiki); experiment: whole plant or invertebrate; assay type: in vivo; conditions: 120 h; read-out: % Control RSB
endpointLabel: pest or weed control at 200 ppm (%)
# value in %; strip the unit string

compound	pest or weed control at 200 ppm [%]
CCCCCCCCNC(=O)/C=C\SC(=O)CCCc1ccccc1 [Compound 80]	50
CCCCCCCCNC(=O)/C=C\SC(=O)CCCCCCCCCCC#N [Compound 58]	50
C=CC(=O)S/C=C\C(=O)NCCCCCCCC [Compound 71, N-octyl-cis-3-(propenoylthio)acrylamide]	0
CCCCCCCCNC(=O)/C=C\SC(=O)/C=C/c1ccc(C(F)(F)F)cc1 [Compound 70]	0
CCCCCCCCNC(=O)/C=C\SC(=O)/C=C/c1cccs1 [Compound 66]	0
CCCCCCCCNC(=O)/C=C\SC(=O)c1cccc(OC)c1[N+](=O)[O-] [Compound 98]	0

Please fill in: pest or weed control at 200 ppm reported for CCCCCCCCNC(=O)/C=C\SC(=O)/C(=C/c1ccccc1)c1ccccc1 [Compound 82] = 0

Lab note: measured pest or weed control at 200 ppm of CCCCCCCCNC(=O)/C=C\SC(=O)c1cc([N+](=O)[O-])cc([N+](=O)[O-])c1 [Compound 97] was 0

// pest or weed control at 200 ppm lookup, compound = CCCCCCCCNC(=O)/C=C\SC(=O)CCc1ccccc1 [Compound 69] , result: 0

* * *

system: Puccinia graminis (f. sp. tritici Race 15B-2); assay: whole plant or invertebrate; assay type: in vivo; details: Puccinia graminis, 336 h, read-out: % Control WSR
endpointLabel: pest or weed control at 200 ppm
Remember to put the unit after the number in your answer.

moleculeSmiles	result
CCCCCCCCNC(=O)/C=C\SC(=O)C(=O)OC	75%
CCCCCCCCNC(=O)/C=C\SC(=O)CCc1ccccc1	75%
CCCCCCCCNC(=O)/C=C\SC(=O)c1cc(Cl)sc1Cl	50%

For the molecule "CCCCCCCCNC(=O)/C=C\SC(=O)CCC1CCCC1" , the measured pest or weed control at 200 ppm on Puccinia graminis (f. sp. tritici Race 15B-2) was 90%

Reported Puccinia graminis (f. sp. tritici Race 15B-2) pest or weed control at 200 ppm for item "CCCCCCCCNC(=O)/C=C\SC(=O)c1cccc(CCl)c1" was 75%

Entry "CCCCCCCCNC(=O)/C=C\SC(=O)C1CC1" , Puccinia graminis (f. sp. tritici Race 15B-2) data, pest or weed control at 200 ppm value: 75%

Fill in: Puccinia graminis (f. sp. tritici Race 15B-2) pest or weed control at 200 ppm for "CCCCCCCCNC(=O)/C=C\SC(=O)c1ccc([N+](=O)[O-])o1" = 95%

* * *

Quick list: pest or weed control at 100 ppm per entry.
tested on: Piricularia oryzae; experiment: whole plant or invertebrate; type: in vivo; details: Pyricularia oryzae, read-out: % Control RB, application rate 100 ppm

Illustrative cases are given below, each with its answer.
compound	result
CCCCCCCCNC(=O)/C=C\SC(=O)c1cccc(OC)c1 [Compound 8]	80%
CCCCCCCCNC(=O)/C=C\SC(=O)COc1ccccc1 [Compound 26]	80%

Item CCCCCCCCNC(=O)/C=C\SC(=O)C(=O)OC [Compound 30] was tested on Piricularia oryzae; the reported pest or weed control at 100 ppm is 0%

Tested on Piricularia oryzae, the item CCCCCCCCNC(=O)/C=C\SC(=O)c1cccc(CCl)c1 [Compound 22] showed pest or weed control at 100 ppm equal to 0%

// pest or weed control at 100 ppm (Piricularia oryzae) for CCCCCCCCNC(=O)/C=C\SC(=O)CCl [Compound 31] = 0%

* * *

compounds and their reported pest or weed control at 100 ppm
system: Phytophthora infestans; test: whole plant or invertebrate; assay type: in vivo; details: Phytophthora infestans, in Solanum lycopersicum, 96 h, read-out: % Control TLB, application rate 100 ppm
Give just the numeric value; % need not be written.

Use these answered entries as a reference point.
compound	unitTag	readoutNumber
CCCCCCCCNC(=O)/C=C\SC(=O)c1cccnc1	%	95
CCCCCCCCNC(=O)/C=C\SC(=O)c1cccc(Br)c1	%	0
CCCCCCCCNC(=O)/C=C\SC(=O)c1c(F)cc(F)cc1F	%	0
CCCCCCCCNC(=O)/C=C\SC(=O)c1ccco1 [Compound 15, N-octyl-cis-3-(2-furoylthio)acrylamide]	%	95
CCCCCCCCNC(=O)/C=C\SC(=O)c1ccc(N=C=S)cc1	%	0
CCCCCCCCNC(=O)/C=C\SC(=O)c1ccc([N+](=O)[O-])cc1	%	95
CCCCCCCCNC(=O)/C=C\SC(=O)CCCl	%	95
CCCCCCCCNC(=O)/C=C\SCn1cncn1	%	0
CCCCCCCCNC(=O)/C=C\SC(=O)c1ccccc1CCl	%	0
CCCCCCCCNC(=O)/C=C\SC(=O)c1ccc(C)cc1C	%	0

The compound "CCCCCCCCNC(=O)/C=C\SC(=O)c1ccc(Br)cn1" showed pest or weed control at 100 ppm equal to 0

pest or weed control at 100 ppm in this record for CCCCCCCCNC(=O)/C=C\SC(=O)c1ccccc1 [Compound 1, N-octyl-cis-3-(benzoylthio)acrylamide] : 100

Record "CCCCCCCCNC(=O)/C=C\SC(=O)C(C)(C)C" , field pest or weed control at 100 ppm: 100

Summary for this compound, CCCCCCCCNC(=O)/C=C\SC(=O)CCCCCCC [Compound 23, N-octyl-cis-3-(octanoylthio)acrylamide] : pest or weed control at 100 ppm is 0
